Test system: Staphylococcus aureus (ATCC29213)
Test: Microtitre plate assay, IC90 determination (STA 29213)
Type: cell-based
Details: Staphylococcus aureus, ATCC29213, 24 h, 90% inhibitory concentration for bacterial growth, 37° C., resazurin fluorescence
Method: The bacteria used in this study were grown overnight in flasks containing 100 ml Mueller-Hinton Broth (Becton Dickinson—cat. no. 275730) in sterile de-ionized water, with shaking, at 37° C. Stocks (0.5 ml/tube) were stored at −70° C. until use. Bacteria titrations were performed in microtiter plates and colony forming units (CFUs) were determined. In general, an inoculum level of approximately 100 CFUs was used for susceptibility testing. […]
Task for the reader: assign each of the following compounds its reported IC90.
// units = µg/mL; emit number, no label

Find the measured IC90 of COc1nc2ccc(Br)cc2cc1C(c1ccccc1)C(O)(CCc1ccc(F)cc1)CCN1CCCCC1 (stereo not drawn) and report it. 59.2

Tell us which IC90 value is on record for COc1ccc(CCC(O)(CCN(C)C)C(c2ccc(Cl)cc2)c2cc3cc(Br)ccc3nc2OC)cc1 (stereo not drawn) 1.9

Return IC90 (reported value) for this compound: CNCCC(O)(CCc1ccc(F)cc1)C(c1ccccc1)c1cc2cc(Br)ccc2nc1OC (stereo not drawn) 1.7

src = patent US20130030017A1
